Biological target: Methyl-CpG-binding domain protein 4 (Homo sapiens) (UniProt O95243);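 also: MBD4 activity read as fluorescence at 594 nm from cleavage and release of a quenched duplex DNA oligonucleotide, with APE1 coupled to incise the strand and raise turnover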
Sequence (O95243 whole entry, the tested form may be a part): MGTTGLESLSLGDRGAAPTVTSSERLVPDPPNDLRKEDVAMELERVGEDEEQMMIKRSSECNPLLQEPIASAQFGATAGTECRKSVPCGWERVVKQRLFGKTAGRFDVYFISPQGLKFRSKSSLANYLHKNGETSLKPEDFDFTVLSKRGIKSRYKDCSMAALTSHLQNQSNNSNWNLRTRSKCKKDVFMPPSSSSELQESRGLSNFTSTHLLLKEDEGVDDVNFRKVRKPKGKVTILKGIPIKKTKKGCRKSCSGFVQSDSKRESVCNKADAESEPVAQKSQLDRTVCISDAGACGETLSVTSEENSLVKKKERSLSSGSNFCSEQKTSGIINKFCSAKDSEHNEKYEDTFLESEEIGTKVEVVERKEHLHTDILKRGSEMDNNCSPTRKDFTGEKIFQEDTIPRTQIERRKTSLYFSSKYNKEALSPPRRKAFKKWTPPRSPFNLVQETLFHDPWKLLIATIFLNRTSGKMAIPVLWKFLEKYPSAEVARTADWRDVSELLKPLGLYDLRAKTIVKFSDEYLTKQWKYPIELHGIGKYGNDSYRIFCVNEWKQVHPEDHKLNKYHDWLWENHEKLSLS
Conditions: Compound Concentration 10.0 uM, Hit No
result type: inhibition (%)

* CC1CCN(c2ccnc(NCc3cn(C)cn3)n2)CC1 | 67.6
* CCOc1c2c(c(OCC)c3ncccc13)CN(c1ccc(CS(=O)(=O)NC(=O)Cc3ccccc3OC)cc1C)C2=O | 14.3
* CC1(C)SSC(C)(C)[C@@H](NC(=O)[C@@H](N)Cc2ccc(O)cc2)C(=O)NCC(=O)N[C@@H](Cc2ccccc2)C(=O)N[C@H]1C(=O)O | -7.23
* Cc1cc(-c2nncc3c(C(C)(C)C)c(OCc4ncnn4C)nn23)no1 | -4.07
* NC(CCP(=O)(O)O)C(=O)O (racemic) | 6.95
* Cc1c(F)cccc1NC(=O)Nc1ccc(Cl)c(S(=O)(=O)[C@H]2CCCNC2)c1O | 0.266
* COc1ccc([C@@H]2Sc3ccccc3N(CCN(C)C)C(=O)[C@@H]2OC(C)=O)cc1 | -5.04
* CN(C(=O)c1cnn2cccnc12)c1cc2c(cc1N1CCOCC1)C(=O)N(C[C@@H](F)C(C)(C)O)C2 | 23.6
* COc1cc2nc(N3CCN(C(=O)c4ccco4)CC3)nc(N)c2cc1OC | 7.24

----------
Molecular target: Endonuclease 8-like 2 (Homo sapiens);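 also: fluorescence at 594 nm reports NEIL2 cutting and release of a quenched double-stranded DNA oligo substrate, reduced signal read as inhibition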
Conditions: Compound Concentration 10.0 uM, Hit No
We begin with a simple list: items and their reported inhibition.
result type: inhibition (%)

* CNc1nc(Nc2ccccc2)nc(OC(C(F)(F)F)C(F)(F)F)n1 | 1.69
* CO[C@@H](C)c1c(Nc2ccc([C@@H](N(C)C(=O)C3CCS(=O)(=O)CC3)C(F)(F)F)cc2)cnc2cc(Cl)nn12 | 0.0213
* O=C(O)c1ccnc(N2CC(O)(c3ccc(OCc4c(-c5c(Cl)cccc5Cl)noc4C4CC4)cc3Cl)C2)c1 | 3.34
* FC(F)(F)c1ccc(Nc2ncnc3cc(-c4ncccc4C(F)(F)F)ccc23)cc1 | 2.71
* CC(C)c1cc(Br)c(NC(=O)Nc2cccnc2)c(Br)c1 | 7.55
* O=c1cc(-c2cc(F)c(Cl)nc2Cl)[nH]c2c(-c3ccccc3)c(C(F)(F)F)nn12 | 16
* CC1=C(C#N)C(c2ccc3c(c2)c(NC(=O)c2ccccc2C)nn3C)C(C#N)=C(C)N1 | 0.0213
* CNC[C@H](O)c1cccc(O)c1 | 7.25
* CC(C)NC(=O)c1ccc(C#Cc2ccncc2)cn1 | 5.76
* CO[C@H]1CC=C2CCN3CCC4=C(CC(=O)OC4)[C@]23C1 | -5.96
* CCc1nnc(NS(=O)(=O)c2ccc(NC(=S)NC(=O)/C=C/c3ccc(F)cc3)cc2)s1 | 9.5
* C(#Cc1cccc(CN2CCOCC2)c1)CCN1CCCCC1 | -2.73
* CCCCc1nc2ccc(NC(=O)NC3CCCCC3)cc2n1Cc1ccc(-c2ccccc2C(=O)O)cc1 | 11
* Cc1ccc(/C(=C\CN2CCCC2)c2ccccn2)cc1 | -2.48
* CC(=O)NCCc1c(Cc2ccccc2)[nH]c2ccccc12 | 3.51
* O=C(Nc1cccnn1)N1CCC(=Cc2cccc(Oc3ccc(C(F)(F)F)cn3)c2)CC1 | -7.12
* NCCCCN(Cc1nc2ccccc2[nH]1)[C@H]1CCCc2cccnc21 | 6.78
* CS(=O)(=O)c1cccc(NC(=O)N(Cc2ccc(C(=O)Nc3nnn[nH]3)cc2)c2ccc(C3CCCCC3)cc2)c1 | 14.7
* CN(C(=O)c1ccccc1)c1cc(N(C)c2ccc3c(c2)CCc2ccc(C(=O)NCCN4CCOCC4)cc2C3=O)ccc1F | -1.45
* COc1ccc(NS(=O)(=O)c2sc3ccc(Cl)cc3c2C)cc1N1CCNCC1 | 1.51

----------
Target: DNA-3-methyladenine glycosylase (Homo sapiens) (UniProt P29372);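 also: enzyme assay where MPG cuts a quenched duplex DNA oligonucleotide probe, paired with APE1 for strand incision and turnover, read as fluorescence at 594 nm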
Sequence (P29372 whole entry): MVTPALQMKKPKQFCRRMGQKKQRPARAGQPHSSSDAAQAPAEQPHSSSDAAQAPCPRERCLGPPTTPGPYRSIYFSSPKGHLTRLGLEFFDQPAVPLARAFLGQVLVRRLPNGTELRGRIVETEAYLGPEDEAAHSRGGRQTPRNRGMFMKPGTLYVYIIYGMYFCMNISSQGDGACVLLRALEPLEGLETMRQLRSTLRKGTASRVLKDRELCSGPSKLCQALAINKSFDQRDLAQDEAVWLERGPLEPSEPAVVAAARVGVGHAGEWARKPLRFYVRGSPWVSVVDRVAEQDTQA
Conditions: Compound Concentration 10.0 uM, Hit No
We begin with a simple list: items and their reported inhibition.
result type: inhibition (%)

* O=[N+]([O-])c1ccc(CN2CCOCCOCCN(Cc3ccc([N+](=O)[O-])cc3)CCOCC2)cc1 | 31.4
* CC[C@H]1CN2CCc3cc(OC)c(OC)cc3[C@@H]2C[C@@H]1C[C@H]1NCCc2cc(OC)c(OC)cc21 | -9.31
* Nc1ncnc2c1ncn2[C@@H]1O[C@H](COP(=O)(O)OP(=O)(O)O)[C@@H](O)[C@H]1O | -6.47
* N#Cc1c[nH]c2c(C(=O)N3CCN(CCc4ccc(F)cc4)CC3)cccc12 | -7.3
* O=C(Nc1ccc(S(=O)(=O)Nc2nccs2)cc1)C(c1ccccc1)c1ccccc1 | 34
* Cn1c(SCc2ccc(C(C)(C)C)cc2)nc(N)cc1=O | 9.09
* CSc1ccccc1N1CCN(CCCCCC(=O)NC2CCCc3ccccc32)CC1 (stereo unspecified) | 6.14
* CCCCN(CCCC)C(=O)CN1C[C@@H](c2ccc3c(c2)OCO3)[C@H](C(=O)O)[C@H]1c1ccc(OC)cc1 | 19.8
* CN1CCC(c2c[nH]c3ccc(O)cc23)CC1 | -0.341
* CC(C)(C#Cc1ccc(NC(=O)COc2ccccc2C(=O)c2ccccc2)c(Cl)c1)C(=O)O | 115
* N=C(N)NC(=O)Cc1c(Cl)cccc1Cl | -0.939
* CC(C)NCC(O)COc1ccc(CCOCC2CC2)cc1 (stereo unspecified) | -1.52
* O=C(Nc1cccc(C(F)(F)F)c1)c1cc(Cl)ccc1O | 23.5
* CN(C)CC[C@@H](c1ccc(Cl)cc1)c1ccccn1 | 0.18
* CC1(C)N=C(C2CCCCC2)c2ccc(C#N)cc2N(c2ccc(NCCNC3CCOCC3)cc2)C1=O | 7.31
* CCC(C)(C)/N=C(\NC#N)Nc1cccnc1 | 6.03
* CCOc1c2c(c(OCC)c3ncccc13)CN(c1ccc(CS(=O)(=O)NC(=O)Cc3ccccc3OC)cc1C)C2=O | -2.33
* COc1c(Nc2ccc(S(C)(=O)=O)nc2C)ncnc1OC1CCN(C(=O)OC(C)C)CC1 | -8.34
* CN(C)c1ccnc2sc3c(=O)n(N4CCCCCC4)cnc3c12 | 2.57
* COc1ccc(CC(=O)NCc2ccccc2-c2ccccc2C(=O)NCc2ccc(F)cc2F)cc1 | 22.4
* O=c1ccc2c(OCCCCc3ccccc3)c3ccoc3cc2o1 | 2.27

----------
We begin with a simple list: items and their reported inhibition.
Molecular target: Endonuclease III-like protein 1 (Homo sapiens)
Conditions: Compound Concentration 10.0 uM, Hit No
result type: inhibition (%)

* CCCN(CCc1cccs1)[C@H]1CCc2c(O)cccc2C1 | 18.7
* Cc1cc(SCc2sc(-c3ccc(C(F)(F)F)cc3)nc2C)ccc1OCC(=O)O | 17.8
* CC(C)(C)OC(=O)N1CCCC1CNC1CCC(c2cc(F)ccc2F)(S(=O)(=O)c2ccc(Cl)cc2)CC1 (stereo not given) | -1.29
* FC(F)(F)c1ccccc1-c1cc(C(F)(F)F)c2[nH]c(C3=NOC4(CCCCC4)C3)nc2c1 | -6.04
* COc1cccc(Cn2cc(C(=O)Nc3ccc(C)c(S(=O)(=O)N4CCOCC4)c3)c(-c3ccc(C)cc3)n2)c1 | 1.34
* O=C(Nc1cccc(C(F)(F)F)c1)c1cc(Cl)ccc1O | 5.52
* O=C(O)c1ccc(-c2coc3ncc(-c4ccccc4)cc23)cc1Cl | 1.48
* Cc1cnc(-c2cc(N3CCN(C(=O)CCS(C)(=O)=O)CC3)ncc2Cl)c(C)c1 | 15.8
* COc1ccccc1S(=O)(=O)Nc1ccc(C)cc1Oc1ccc2c(N)nccc2c1 | 17.1
* FC(F)c1nc2ccccc2n1-c1nc(N2CCOCC2)nc(N2CCOCC2)n1 | 7.06
* O=C1NCN(c2ccccc2)C12CCN(CCCOc1ccc(F)cc1)CC2 | 4.86
* Cc1cc(NC(=O)Nc2ccccc2)n(-c2ccccc2)n1 | 10.5
* Cc1c(N2CCCC2)nc2ccc(Br)cc2c1C(=O)NC[C@H](CCC(=O)O)c1ccccc1Cl | -1.95
* CN(C)CCN(Cc1ccc(-c2ccc(CNCCc3ccccc3)cc2)cc1)C(=O)CCC1CCCC1 | 8
* COc1cccc(OC)c1-c1cc(C(=O)NC2(C(=O)O)C3CC4CC(C3)CC2C4)nn1-c1ccnc2cc(Cl)ccc12 (stereo not given) | 24.6
* CC(C)c1cc(Br)c(NC(=O)Nc2cccnc2)c(Br)c1 | -2.73
* NCCCCN(Cc1nc2ccccc2[nH]1)[C@H]1CCCc2cccnc21 | -0.258
* Cc1onc(-c2ccc(F)cc2)c1COc1ccc(C(=O)N2CCS(=O)(=O)CC2)cn1 | 12.9
* O=C(NCC12CC3CC(CC(C3)C1)C2)c1ccccc1Cl | 1.39
* COCc1nc2cnc3cc(-c4c(C)noc4C)c(OC[C@H]4CCNC4)cc3c2n1[C@H](C)c1ccccc1 | -9.18

----------
Biological target: N-glycosylase/DNA lyase (Homo sapiens)
Details: Compound Concentration 10.0 uM, Hit No
result type: inhibition (%)

- O=C(O)c1cc(F)c2nc(N3[C@@H]4CC[C@H]3C[C@@H](OCc3c(-c5ccccc5OC(F)(F)F)noc3C3CC3)C4)sc2c1: 67.8
- COc1cc(Br)c(S(=O)(=O)Nc2ccc(C(F)(F)F)c(O[C@@H]3CCN(C)C3)c2)cc1OC: -7.69
- COc1ccc(CN(CCN(C)C)c2ccccn2)cc1: -6.42
- COc1ccc2cc(S(=O)(=O)N[C@H](CC(=O)N[C@H](Cc3ccc(CN4[C@H](C)CCC[C@@H]4C)cc3)C(=O)N(C)C(C)C)c3ccc4c(c3)OCO4)ccc2c1: -6.96
- OC(CN1CCC(Cc2ccc(F)cc2)CC1)c1ccc(Cl)cc1 (stereo not given): -4.77
